Each entry below carries its reported pEC50.
# System: FIPV strain 79–1146
# measurementNotes: Antiviral assay, prophylactic activity
# Format: cell-based, feline infectious peritonitis virus
# conditionSet: Alphacoronavirus 1, CRFK, read-out: Prophylactic antiviral activity EC50, IPMA
pEC50: −log10 of the molar value.
readoutLabel: pEC50

Cc1cccc(C)c1OCC(=O)N[C@@H](Cc1ccccc1)[C@@H](O)C[C@H](Cc1ccccc1)NC(=O)[C@H](C(C)C)N1CCCNC1=O [Lopinavir, reference compound] ... 4.50
COc1cc(C)c2c(c1C=O)Oc1c(c(C)c(O)c3c1C(O)OC3=O)OC2=O (stereo not drawn) ... 4.57

* * *

CC50 at 48 h for assorted molecules
# measurementNotes: Cytotoxicity assay
# Type: cell-based, feline
# conditionSet: cat, CRFK cells
readoutLabel: CC50 at 48 h

Cc1cccc(C)c1OCC(=O)N[C@@H](Cc1ccccc1)[C@@H](O)C[C@H](Cc1ccccc1)NC(=O)[C@H](C(C)C)N1CCCNC1=O [Lopinavir, reference compound] ... > 500 µM
NC(=O)c1ncn([C@@H]2O[C@H](CO)[C@@H](O)[C@H]2O)n1 [Ribavirin, reference compound] ... > 500 µM
COc1cc(C)c2c(c1C=O)Oc1c(c(C)c(O)c3c1C(O)OC3=O)OC2=O (stereo not drawn) ... 372 µM

* * *

The entries below come with measured pEC50 values attached.
# Test system: FIPV strain 79–1146
# measurementNotes: Antiviral assay, pre-viral entry activity
# Type: cell-based, feline infectious peritonitis virus
# conditionSet: Alphacoronavirus 1, CRFK, 24 h, read-out: Pre-viral entry EC50, IPMA
pEC50: −log10 of the molar value.
readoutLabel: pEC50

NC(=O)c1ncn([C@@H]2O[C@H](CO)[C@@H](O)[C@H]2O)n1 [Ribavirin, reference compound] ... 4.31
Cc1cccc(C)c1OCC(=O)N[C@@H](Cc1ccccc1)[C@@H](O)C[C@H](Cc1ccccc1)NC(=O)[C@H](C(C)C)N1CCCNC1=O [Lopinavir, reference compound] ... 5.07
COc1cc(C)c2c(c1C=O)Oc1c(c(C)c(O)c3c1C(O)OC3=O)OC2=O (stereo not drawn) ... 4.79

* * *

# testedTarget: FIPV 3CL^pro (Feline coronavirus)
# Sequence (Q98VG9 2904-3205 limits assumed): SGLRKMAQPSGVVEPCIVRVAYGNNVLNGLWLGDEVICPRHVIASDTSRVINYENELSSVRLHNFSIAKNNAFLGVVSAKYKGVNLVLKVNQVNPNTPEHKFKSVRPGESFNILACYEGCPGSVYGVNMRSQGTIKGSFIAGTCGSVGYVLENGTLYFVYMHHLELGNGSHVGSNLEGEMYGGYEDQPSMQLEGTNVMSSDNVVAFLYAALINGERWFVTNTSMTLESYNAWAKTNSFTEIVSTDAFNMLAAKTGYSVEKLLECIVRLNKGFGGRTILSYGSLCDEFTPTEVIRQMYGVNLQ
# measurementNotes: FIPV 3CLpro protease inhibition assay
# Type: biochemical, feline infectious peritonitis virus (FIPV strain 79–1146)
# conditionSet: read-out: Protease inhibition assay (IC50); 35 nM enzyme, 6 μM fluorogenic substrate
pIC50: −log10 of the molar value.
Parameter: pIC50. Scope: all listed entries.
readoutLabel: pIC50

CC(=O)O[C@@H]1[C@@H](O)C2=C3[C@]4(C)[C@@H]1C(C)(C)C(=O)C[C@@H]4[C@]3(O)[C@H](OC(C)=O)[C@@]1(C[C@@H]1C)C2=O ... < 3.30
C=C1C[C@@]23CC[C@H]4[C@@](C)(CCC[C@@]4(C)C(=O)O)[C@@H]2CC[C@]1(O)C3 ... < 3.30
COc1cc(O)c2c(=O)cc(-c3ccc(O)c(O)c3)oc2c1 ... 4.55
O=C1c2cc(O)c(O)cc2OC(c2ccc(O)c(O)c2)C1O (centres unmarked) ... < 3.30
C[C@]1(O)CC[C@H]2[C@@H]3CC[C@H]4C[C@@H](O)CC[C@]4(C)[C@@]3(F)[C@@H](O)C[C@@]21C ... < 3.30
O=c1cc(-c2ccc(O)c(O)c2)oc2cc(OCc3ccccc3)cc(O)c12 ... < 3.30
CC[C@H]1CN2CCc3cc(OC)c(OC)cc3[C@@H]2C[C@@H]1C[C@H]1NCCc2c1[nH]c1ccc(O)cc21 ... < 3.30
Cc1ccc(S(=O)(=O)N/N=C\C=C\c2ccccc2)cc1 ... 4.11
